Provide the recorded activation for the entries that follow.
# Tested on: Aedes aegypti neuropeptide Y-like receptor 7 (NPYLR7)
# assay_overview: agonists of mosquito NPYLR7 receptor, primary screen, cell-based, Aedes aegypti, calcium fluorescence, mosquito biting behavior (AID 1259423);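 note: 0% = vehicle and 100% = reference agonist at the receptor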
# settings: HEK293T NPYLR7/Galpha15, GCaMP6s calcium fluorescence; at 10 µM; active compounds read high
Screen size: about 270,000 compounds; about 410 (0.15%) were called active. This excerpt belongs to a sample that is enriched for actives.
Quick note: give the figure in %, leave out the unit.

Which activation is reported for this molecule? CC(C)CC(NC1CCN(C(=O)c2ccccc2)CC1)c1ncnn1C (stereo unspecified)
8.96

Which activation is reported for this molecule? CCCc1nc(N2CCCN(c3ncccn3)CC2)c2cnn(C)c2n1
-2.57

Which activation is reported for this molecule? COc1ccc(CCN2CCC(CN(C)C(=O)c3ccoc3)CC2)cc1
13.3

Which activation is reported for this molecule? CN(Cc1cc(-c2ccncc2)no1)Cc1cn[nH]c1-c1cccc(F)c1
1.92

Which activation is reported for this molecule? CCCN(C(=O)Cn1nc(C)c2ccccc2c1=O)[C@@H]1CCCC[C@H]1O
0.206

Which activation is reported for this molecule? C=CCN(Cc1csc(COc2ccc(C)c(C)c2)n1)C(=O)c1cccc(OC)c1
-4.71
